Please go through the items and note down their TGI.
tested on: MCF7 breast; assay: NCI tumour cell line growth inhibition, 48 h

// each molecule listed below needs its TGI
1. O=C(CC(c1ccccc1)c1c(O)c2ccccc2oc1=O)c1ccccc1 (centres undefined)
2. COC(=O)CCC(=O)NC1=C(NCc2ccccc2)C(=O)c2ccccc2C1=O
3. O=C1NC(SSC2=NNC3(C(=O)N2)c2ccccc2-c2ccccc23)=NNC12c1ccccc1-c1ccccc12
4. CN[C@H]1C=C[C@@H]2/C=C(C)/C=C/[C@@H](C)[C@H]([C@H](C)[C@H](O)[C@@H](C)NC(C)=O)OC(=O)/C=C/C=C(C)\C=C\[C@]2(C)C1
5. C=C1C(=O)O[C@@H]2C[C@@H](C)[C@@H]3C=CC(=O)[C@@]3(C)[C@@H](OC(=O)CC(=O)O[C@H]3[C@@H]4C(=C)C(=O)O[C@@H]4C[C@@H](C)[C@@H]4C=CC(=O)[C@]43C)[C@H]12

1: > 100 µM; 2: 58.2 µM; 3: > 10 µM; 4: > 49 µM; 5: 0.21 µM

Below are some molecules; for each one, tell me its TGI.
1. FC(F)(F)c1nc2nc(Cl)c(Cl)nc2n1CCCN1CCOCC1
2. Nc1ncnc2c1nnn2C1C=CC(COS(N)(=O)=O)C1 (centres undefined)
3. N/C(=N\S(=O)(=O)c1ccc(S(=O)(=O)c2ccccc2)s1)Nc1ccc(Cl)cc1
4. O=C1c2ccccc2-c2c1c1c(=O)[nH]c3ccccc3c1n2Cc1ccccc1

> 100 µM
> 100 µM
35.6 µM
> 100 µM

Dear colleague, could you send me TGI for each of the items below? Thanks.
1. NC(N)=N/N=C/c1nc2n(c1[N+](=O)[O-])CCS2
2. Cc1[nH]c2c(c1C)S(=O)(=O)c1cc3ccccc3nc1N2
3. CC(C)/C(Cl)=N\OC(=O)Nc1ccccc1F
4. Cc1ccc(C)c2c1C(O)(C#Cc1ccccc1)c1ccccc1C2(O)C#Cc1ccccc1 (centres undefined)
5. Cc1ccc(S(=O)(=O)NC(=O)C2C(=O)CC3(CCCCC3)CC2=O)cc1
6. COC(=O)C1=C(C(=O)OC)C(C(=O)c2ccc(Br)cc2)N2N=C(c3ccc(Cl)cc3)C=CC12 (centres undefined)
7. CC(C)CCC(=O)c1ccoc1
8. CCOC(=O)c1sc(-c2ccc(OS(=O)(=O)c3ccc(Br)s3)c(C=O)c2)nc1C

1. > 100 µM
2. > 100 µM
3. 16 µM
4. > 100 µM
5. 55.7 µM
6. > 100 µM
7. > 100 µM
8. 8.97 µM

Dear colleague, could you send me TGI for each of the items below? Thanks.
1. CCCN(CCCC(NC(C)=O)C(=O)NCc1ccccc1)C(=O)N(CCCl)N=O (centres undefined)
2. COC(=O)C1C/C(=C/N(C)C)C(=S)N1 (centres undefined)
3. Cc1cnc2sn(-c3ccc(Oc4ccccc4)cc3)c(=O)c2c1

1: > 100 µM; 2: > 100 µM; 3: 75.4 µM

* * *

test system: MDA-MB-231 breast; assay: NCI tumour cell line growth inhibition, 48 h; in the data active = GI50 below about 0.43 µM; inactive = the rest
Select the matching outcome among active, inactive

As a guide, the following entries are already answered.
COMPOUND	LABEL VALUE
Cc1sc2nc(-c3ccncc3)c(/C=N/N=C(N)N)n2c1C	inactive
Cc1cc(S(=O)(=O)Nc2nc3cscc3c(=O)n2Cc2ccccc2)c(S)cc1Cl	inactive

Dear all, I need the recorded test outcome for CN(C)CCCOc1ccc(-c2ccc3ncc4c(c3c2)n(C2CCOCC2)c(=O)n4C)cn1 , thank you.
inactive

What was the test verdict on COc1cccc(-c2nc3sccn3c2-c2ccnc(NCCCNS(=O)(=O)c3cccc(F)c3)c2)c1 ?
inactive

Entry COc1ccc(S(=O)(=O)N2CC(C)(C)CN(S(=O)(=O)c3ccc(OC)cc3)C2C(=O)NO)cc1 : call = ?
inactive

Which outcome was assigned to Nc1ccc(C2=NN(c3ccccc3)C(c3ccc(Cl)cc3)C2)cc1 (stereo unspecified) in this test?
inactive

Which outcome did this test record for the compound CC(C)(C)C(=O)c1c(C(F)(F)F)n([O-])c2ccccc2[n+]1=O ?
inactive
